Experimental target: Anti-CD28 Fab (SEQ ID NOs: 696, 697)
Sequence (VH, as listed by the source, chain 1 of 2): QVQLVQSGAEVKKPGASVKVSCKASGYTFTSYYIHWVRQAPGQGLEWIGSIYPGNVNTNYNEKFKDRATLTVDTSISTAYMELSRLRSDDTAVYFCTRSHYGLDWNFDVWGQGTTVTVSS
Sequence (VL, as listed by the source, chain 2 of 2): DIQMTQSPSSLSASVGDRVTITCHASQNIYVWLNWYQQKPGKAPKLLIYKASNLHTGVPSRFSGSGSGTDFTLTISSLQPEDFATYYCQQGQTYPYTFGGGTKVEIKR
Assay protocol: phage binding ELISA; captured anti-CD28 Fab pre-incubated with CD28 antigen as competitor, anti-M13 HRP detection
Where no end group is shown, it is not given here.
The reader will find reported Anti-CD28 Fab signal in the presence of CD28 values listed item by item below.
Measurement label: Anti-CD28 Fab signal in the presence of CD28

# Binder, Experimental result
records = [
    ("YCDGHAPEYMEKCL (cysteine pairing not given here; also: displayed on phage by fusion to pIII, pIII and linker sequence not given here) [Phage-704]", 0.09),
    ("YCEGHSLEYMGKCL (cysteine pairing not given here; also: displayed on phage by fusion to pIII, pIII and linker sequence not given here) [Phage-703]", 0.09),
    ("YCEGHAREHMAKCL (cysteine pairing not given here; also: displayed on phage by fusion to pIII, pIII and linker sequence not given here) [Phage-700]", 0.08),
    ("YCDGHSHEYMEKCL (cysteine pairing not given here; also: displayed on phage by fusion to pIII, pIII and linker sequence not given here) [Phage-707]", 0.06),
]
